target: Bromodomain-containing protein 4 (Homo sapiens) (UniProt O60885)
experimental-parameters: Compound concentration 20.0 uM, Protein concentration 2.0 uM, Result type QC Liability
measurement-type: ΔTm (°C)
Your answer should be a plain number; it is taken to be in °C.

[
  {
    "mol": "COc1cc(-c2cc([C@H](O)C3CC3)n3ncnc(N)c23)ccc1CO",
    "reported-value": 0.22
  }
]

Input: Assign ΔTm to the following record: `COc1cc(C(=O)NCCOCCOCCOCC(=O)N[C@H](C(=O)N2C[C@@H](O)C[C@H]2C(=O)NCc2ccc(-c3scnc3C)cc2)C(C)(C)C)ccc1Nc1ncc(C(F)(F)F)c(Oc2cccc3c2C(=O)CC3)n1`
Output: 0.11

Input: Retrieve ΔTm measured for `N[C@@H]1CCCN(c2c(/C=C3\SC(=O)NC3=O)cccc2-c2ccccc2)C1` and print it.
Output: -2.91

Input: Please report ΔTm for the following compound: `O=C1Nc2ccc(I)cc2/C1=C/c1cc(Br)c(O)c(Br)c1`
Output: -0.9

----------
target: Bromodomain-containing protein 4 (Homo sapiens) (UniProt O60885)
experimental-parameters: Compound concentration 20.0 uM, Protein concentration 2.0 uM, Result type QC Liability
measurement-type: ΔTm

[
  {
    "molecule": "CN[C@@H]1CC[C@@H](c2ccc(Cl)c(Cl)c2)c2ccccc21",
    "target": "Bromodomain-containing protein 4 (Homo sapiens) (UniProt O60885)",
    "ΔTm": "-1.03 °C"
  },
  {
    "molecule": "COCCN(C)c1ccc(NC(=O)/C=C(\\C)c2ccc3ccccc3c2)c(C(=O)O)c1",
    "target": "Bromodomain-containing protein 4 (Homo sapiens) (UniProt O60885)",
    "ΔTm": "-1.96 °C"
  },
  {
    "molecule": "Nc1ncnc2[nH]c(-c3ccccc3)nc12",
    "target": "Bromodomain-containing protein 4 (Homo sapiens) (UniProt O60885)",
    "ΔTm": "-1.11 °C"
  },
  {
    "molecule": "Cc1nc2cccnc2n2c(-c3cc([C@@]4(O)CCCOC4)ccc3Cl)nnc12",
    "target": "Bromodomain-containing protein 4 (Homo sapiens) (UniProt O60885)",
    "ΔTm": "-1.99 °C"
  },
  {
    "molecule": "NC(=O)OC[C@H](NC(=O)Cn1nc(-c2ccc(Cl)cc2)n(C[C@H](O)C(F)(F)F)c1=O)c1cccc(C(F)(F)F)c1",
    "target": "Bromodomain-containing protein 4 (Homo sapiens) (UniProt O60885)",
    "ΔTm": "0.39 °C"
  }
]

Input: Report ΔTm, nothing else, for this molecule: COc1ccc2c(O[C@@H]3C[C@H]4C(=O)N[C@]5(C(=O)NS(=O)(=O)C6(C)CC6)CC5/C=C\CCCCC[C@H](NC(=O)c5ccn(C)n5)C(=O)N4C3)cc(OC(C)C)nc2c1C (stereo partly drawn)
Output: 1.29 °C

Input: Give the value of ΔTm reported for the following: `CCS(=O)(=O)Nc1cccc(Oc2cncc(Nc3ccc(I)cc3F)c2C(N)=O)c1`
Output: -0.22 °C

Input: Give the measured ΔTm for `Cn1cc(-c2cnc3ccc4ccc(CS(=O)(=O)NCc5ccccn5)cc4c(=O)c3c2)cn1`
Output: -1.72 °C

Input: Identify the reported ΔTm for the following entry. `CN(CCCCCCC1=C(c2cc(F)cc(F)c2)CCCc2cc(O)ccc21)CCCCS(=O)(=O)CCCC(F)(F)F`
Output: 1.66 °C

Input: Note down ΔTm recorded for `Cc1cn([C@@H](C)CC#N)c(=O)c2cc(Cn3nc(C(F)F)cc3Cl)nn12`
Output: -0.88 °C

Input: Give reported ΔTm value for `CCc1nc(-c2cccc(C)c2)c(-c2ccncc2)s1`
Output: 0.55 °C

Input: // fetch ΔTm given entry `COc1cc(-c2nn([C@H]3CC[C@H](N4CCN(C(C)=O)CC4)CC3)c3ncnc(N)c23)ccc1NC(=O)c1cc2ccccc2n1C`
Output: 0.13 °C

Input: Return reported ΔTm. Input molecule: N=C(N)NCCC[C@H](NC(=O)CC1(CC(=O)N2CCN(C3c4ccccc4NC(=O)c4ccccc43)CC2)CCCC1)C(=O)NCCn1c(=O)n(-c2ccccc2)n(-c2ccccc2)c1=O (stereo partly drawn)
Output: 0.44 °C

Input: Answer with the recorded ΔTm for the molecule listed here: `FC(F)c1cncc(-c2ccc3ncc4nnc(C5=CCCOCC5)n4c3c2)c1`
Output: -0.98 °C

Input: Annotate the molecule `Cc1cc2c(-c3ccco3)cnc(N[C@H]3CCN(C)C[C@@H]3C(=O)NC3CCCCC3)c2[nH]c1=O` with its measured ΔTm.
Output: 3.29 °C

Input: Look up and report measured ΔTm for this entry: `CC(=O)Nc1ncc(CN2CCC[C@H](Cc3cc(C)nc(C)c3)C2)s1`
Output: 0.62 °C

Input: Provide one value: measured ΔTm of `CC(C)C[C@H](NC(=O)[C@@H](O)[C@H](N)Cc1ccccc1)C(=O)O`
Output: -0.66 °C

Input: For the molecule CN(C)C(=O)c1cc2cnc(Nc3ccc(N4CCN(CCCCNC(=O)COc5cccc6c5C(=O)N(C5CCC(=O)NC5=O)C6=O)CC4)cn3)nc2n1C1CCCC1 (stereo not drawn) , give its measured ΔTm value.
Output: -0.39 °C

----------
target: Bromodomain-containing protein 4 (Homo sapiens) (UniProt O60885)
experimental-parameters: Compound concentration 20.0 uM, Protein concentration 2.0 uM, Result type QC Liability
measurement-type: ΔTm (°C)
# value in °C; strip the unit string

[
  {
    "molecule": "CCCCC/C=C/C=C1/C(=O)C=C[C@@H]1C/C=C\\CCCC(=O)O",
    "ΔTm / °C": -4.89
  }
]

Input: Note ΔTm for the molecule shown: `Cn1c(Nc2c(Cl)cccc2Cl)nc2ccc3nc[nH]c(=O)c3c21`
Output: -3.08

Input: Provide ΔTm value for the following molecule: `CCCCC[C@H](O)/C=C/[C@H]1[C@H](O)CC(=O)[C@@H]1CCCCCCC(=O)O`
Output: -1.54

Input: Tell us which ΔTm value is on record for `CCS(=O)(=O)c1ccc(OC)c(Nc2ncc(-c3cccc(F)c3)o2)c1`
Output: -2.4

Input: Input `CC(C)(O)c1coc(S(=O)(=O)NC(=O)Nc2c3c(cc4c2CCC4)CCC3)c1` , output reported ΔTm.
Output: -0.92

Input: Please report ΔTm for the following molecule: `C[C@@]1(Cc2ccc(C#N)cc2)C(=O)N(c2cc(Cl)cc(Cl)c2)c2ncc(C(=O)NC3(c4nc(C5CCC5)no4)CC3)n21`
Output: 10.3

Input: Give reported ΔTm value for `COc1ccc(C(F)(F)F)cc1NC(=O)Nc1ccc(Oc2cc(C)nc(N)n2)c2ccccc12`
Output: -0.19

----------
target: Bromodomain-containing protein 4 (Homo sapiens)
experimental-parameters: Compound concentration 20.0 uM, Protein concentration 2.0 uM, Result type QC Liability
measurement-type: ΔTm (°C)
Enter your answer as a number in °C; do not include the unit.

# count of solved cases: 4
[
  {
    "mol": "CC(C)(C)OC(=O)CN(Cc1ccc(Cl)cc1)Cc1ccc([N+](=O)[O-])s1",
    "reported-value": -2.44
  },
  {
    "mol": "O[C@]1(C(F)(F)F)CCCC[C@H]1Nc1ccc(F)cc1",
    "reported-value": -1.92
  },
  {
    "mol": "COc1cc(-c2cc3ncccc3c(O[C@@H](C)[C@H]3CNC(=O)C3)n2)cc(OC)c1OC",
    "reported-value": 1.39
  },
  {
    "mol": "CSc1ccc(C[C@@H](C)C(=O)O)cc1Nc1nc(N2CC[C@H](N(C)C)C2)cc(C(F)F)c1C#N",
    "reported-value": 0.52
  }
]

Input: Supply recorded ΔTm for `CCC(=O)N[C@@H]1CC[C@H](C(=O)N(C)c2ccc(-c3nc4ccccc4o3)cc2)C1` here.
Output: -0.34

----------
target: Transcription intermediary factor 1-alpha (Homo sapiens) (UniProt O15164)
Sequence (whole entry): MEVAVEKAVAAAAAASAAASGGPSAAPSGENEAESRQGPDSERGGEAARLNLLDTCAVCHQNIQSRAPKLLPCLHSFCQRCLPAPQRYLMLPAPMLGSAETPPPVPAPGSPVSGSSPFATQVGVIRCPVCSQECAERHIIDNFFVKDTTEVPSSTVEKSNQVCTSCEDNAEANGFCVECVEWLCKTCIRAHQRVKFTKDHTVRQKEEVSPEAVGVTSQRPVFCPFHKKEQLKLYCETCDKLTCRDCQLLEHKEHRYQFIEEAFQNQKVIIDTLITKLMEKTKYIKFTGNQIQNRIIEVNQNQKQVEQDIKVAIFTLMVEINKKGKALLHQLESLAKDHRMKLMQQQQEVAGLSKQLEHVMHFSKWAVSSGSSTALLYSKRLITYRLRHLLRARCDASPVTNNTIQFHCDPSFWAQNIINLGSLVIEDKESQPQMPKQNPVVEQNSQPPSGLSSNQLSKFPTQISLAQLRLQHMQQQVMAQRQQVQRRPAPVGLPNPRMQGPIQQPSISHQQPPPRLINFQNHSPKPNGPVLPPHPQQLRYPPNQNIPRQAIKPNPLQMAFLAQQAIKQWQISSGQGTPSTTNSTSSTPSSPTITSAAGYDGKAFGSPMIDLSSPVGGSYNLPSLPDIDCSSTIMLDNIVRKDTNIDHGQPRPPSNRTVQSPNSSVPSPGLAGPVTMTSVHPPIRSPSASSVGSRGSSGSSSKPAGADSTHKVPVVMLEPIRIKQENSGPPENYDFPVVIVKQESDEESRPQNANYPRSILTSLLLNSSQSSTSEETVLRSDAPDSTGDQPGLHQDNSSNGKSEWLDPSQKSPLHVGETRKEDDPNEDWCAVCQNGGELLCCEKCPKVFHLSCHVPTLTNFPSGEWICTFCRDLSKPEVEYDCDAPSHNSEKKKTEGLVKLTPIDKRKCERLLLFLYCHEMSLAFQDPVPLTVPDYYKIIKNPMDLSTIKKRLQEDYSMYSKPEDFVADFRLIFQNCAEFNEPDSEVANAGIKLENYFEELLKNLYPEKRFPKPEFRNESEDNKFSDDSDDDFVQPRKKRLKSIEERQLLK
experimental-parameters: Compound concentration 20.0 uM, Protein concentration 2.0 uM, Result type QC Liability
Assign condition met whenever ΔTm does not fall below 0.2 °C; assign condition not met whenever it does.

These solved cases illustrate the format of a correct answer.
[
  {
    "mol": "CCCCCCCN(CCc1ccc(SC(C)(C)C(=O)O)cc1)C(=O)Nc1ccc(F)cc1F",
    "category-label": "condition not met"
  },
  {
    "mol": "CC[C@@H](Nc1c(C#N)c(-c2ccc(-c3cccc(C)c3F)cc2)nc2cnccc12)C(=O)O",
    "category-label": "condition not met"
  },
  {
    "mol": "O=C(Cc1ccccc1[N+](=O)[O-])Nc1ccc(-c2ccc(C(O)(C(F)(F)F)C(F)(F)F)cc2F)cc1",
    "category-label": "condition met"
  },
  {
    "mol": "CN1CC(=O)N(C)c2cnc(Nc3ccc(NC(=O)Nc4cccc(C(=O)O)c4)cc3)nc21",
    "category-label": "condition not met"
  },
  {
    "mol": "Cn1cc(-c2ccc(N(C(=O)NCc3ccccc3)[C@H]3CC[C@H](Nc4ccc(C#N)cn4)CC3)cc2)ccc1=O",
    "category-label": "condition not met"
  },
  {
    "mol": "CC(C)c1nc2c(c3c1[C@@H](c1ccc(C(F)(F)F)cc1)OC31CCOCC1)[C@@H](O)CC(C)(C)C2",
    "category-label": "condition not met"
  },
  {
    "mol": "CC1(C)Cc2nc(C3CCCC3)c([C@@H](F)c3ccc(C(F)(F)F)cc3)c(C3CCCCC3)c2[C@@H](O)C1",
    "category-label": "condition met"
  }
]

Input: // inclusive: ΔTm at least 0.2 °C? input: `CC(=O)N1CCC(c2ccc(C(=O)NC(=N)N)cc2C(F)(F)F)CC1`
Output: condition met
